system: Pontederia vaginalis; test: Herbicidal activity against Monochoria vaginalis assessed as growth inhibition in paddy condition under greenhouse at 5 g/ha measured after 18 days by preemergence activity assay; type: functional; settings: pre-emergence, 432 h, read-out: GI
READOUT: inhibition of growth at 5 g/ha

[[record]]
sample_smiles = "CCOC(=O)c1c(C(F)(F)F)nn(C)c1S(=O)(=O)NC(=O)Nc1nc(OC)cc(OC)n1"
meas_value = "< 5%"

[[record]]
sample_smiles = "CCOC(=O)c1cnn(C)c1S(=O)(=O)NC(=O)Nc1nc(OC)nc(OC)n1"
meas_value = "< 5%"

[[record]]
sample_smiles = "CCOC(=O)c1c([N+](=O)[O-])nn(C)c1S(=O)(=O)NC(=O)Nc1nc(OC)cc(OC)n1"
meas_value = "20%"

